System: HOP-92 NSCLC
Experiment: NCI tumour cell line growth inhibition, 48 h
readout: TGI

Could you please provide reported TGI for COc1ccc(F)cc1C(=O)c1cnc(NC2CCN(S(C)(=O)=O)CC2)nc1N ? Thanks!
9.59 µM

// Input: O=C(CCCN1CC=C(n2c(=O)[nH]c3ccccc32)CC1)c1cccs1 . Output its TGI only.
> 100 µM

Note down TGI recorded for Cc1ccc2sc3c(NCCCNCCO)nc4ccccc4c3c(=O)c2c1
3.78 µM

Look up and state reported TGI for Cc1ccnc2nc3[nH]c4ccccc4c3cc12
> 100 µM

Give the measured TGI for O=C(NN1C(=O)c2ccccc2C1=O)c1ccccc1Nc1ccccc1C(=O)NN1C(=O)c2ccccc2C1=O
> 100 µM

Please give the documented TGI of Nc1nccc(Nc2ccc(S(N)(=O)=O)cc2)n1
> 100 µM

Determine from records and report TGI for COc1ccc2c(c1)Cc1c-2c(NN)nc2ccccc12
71.6 µM

Indicate the recorded TGI value for this compound: COc1ccc(CCN(C)C(=O)CC(C#N)(c2ccccc2)c2ccc(OC)c(OC)c2)cc1OC (stereo not drawn)
> 76 µM

In one line, give reported TGI of the entry O=C1c2ccccc2C(=O)c2c(O)c(O)cc(O)c21 .
76.2 µM

Return reported TGI. Input compound: COc1ccc2c(c1)/C(=C\c1cccc(/C=C3/C(=O)Nc4ccc(OC)cc43)n1)C(=O)N2
7.44 µM

Return TGI for the following compound: O=C(O)CCSc1nnc(COc2ccc(Cl)cc2)n1-c1ccccc1
> 100 µM

Quick one: give measured TGI for C=C(Cl)C(Br)(CBr)CCC(Br)C(C)(C)Br (stereo not drawn)
> 10 µM

Query TGI for COC(=O)N/N=C(\C)C(CN1CCOCC1)C(c1ccccc1)c1cc2ccccc2oc1=O (stereo not drawn)
> 100 µM
